- experimental protocol: self-splicing fitness, log relative to wild type (ln ratio); higher = more splicing; Tetrahymena group I intron in knt gene, E. coli kanamycin selection, DiMSum; sequences stand for … in CUCUCU…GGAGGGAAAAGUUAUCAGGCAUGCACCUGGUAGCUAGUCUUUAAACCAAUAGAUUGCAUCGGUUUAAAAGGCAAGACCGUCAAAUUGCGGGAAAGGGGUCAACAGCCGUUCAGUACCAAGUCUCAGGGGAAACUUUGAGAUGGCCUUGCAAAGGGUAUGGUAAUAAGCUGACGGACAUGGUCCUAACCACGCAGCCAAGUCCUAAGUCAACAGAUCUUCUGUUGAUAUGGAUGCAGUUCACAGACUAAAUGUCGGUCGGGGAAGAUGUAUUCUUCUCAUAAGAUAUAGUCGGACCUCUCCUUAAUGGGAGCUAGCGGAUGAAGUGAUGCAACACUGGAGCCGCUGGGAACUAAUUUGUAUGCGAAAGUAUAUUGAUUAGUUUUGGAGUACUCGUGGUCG;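 further: selection with 25 µg/mL kanamycin versus none on LB agar overnight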
- conditions used: 37 °C
Would you mind labelling by self-splicing fitness (ln)? At or over -2 is true (1), under is false (0).

>  <residues>
CCGCAGCAAUAUUACGUUGU

>  <category label>
false (0)

$$$$
>  <residues>
CAAUAGCAAUAUUACGACAU

>  <category label>
false (0)

$$$$
>  <residues>
ACCCAGCAAUAUUACGAAGC

>  <category label>
true (1)

$$$$
>  <residues>
GGCGAGCAAUAUUACGUCAG

>  <category label>
false (0)

$$$$
>  <residues>
UGUCAGCAAUAUUACGAGGA

>  <category label>
true (1)

$$$$
>  <residues>
GGUAAGCAAUAUUACGGGGA

>  <category label>
false (0)

$$$$
>  <residues>
UAACAGCAAUAUUACGUAUA

>  <category label>
true (1)

$$$$
